- assaySystem: Jak2 (UniProt O60674)
- Sequence (O60674 whole entry, looked up): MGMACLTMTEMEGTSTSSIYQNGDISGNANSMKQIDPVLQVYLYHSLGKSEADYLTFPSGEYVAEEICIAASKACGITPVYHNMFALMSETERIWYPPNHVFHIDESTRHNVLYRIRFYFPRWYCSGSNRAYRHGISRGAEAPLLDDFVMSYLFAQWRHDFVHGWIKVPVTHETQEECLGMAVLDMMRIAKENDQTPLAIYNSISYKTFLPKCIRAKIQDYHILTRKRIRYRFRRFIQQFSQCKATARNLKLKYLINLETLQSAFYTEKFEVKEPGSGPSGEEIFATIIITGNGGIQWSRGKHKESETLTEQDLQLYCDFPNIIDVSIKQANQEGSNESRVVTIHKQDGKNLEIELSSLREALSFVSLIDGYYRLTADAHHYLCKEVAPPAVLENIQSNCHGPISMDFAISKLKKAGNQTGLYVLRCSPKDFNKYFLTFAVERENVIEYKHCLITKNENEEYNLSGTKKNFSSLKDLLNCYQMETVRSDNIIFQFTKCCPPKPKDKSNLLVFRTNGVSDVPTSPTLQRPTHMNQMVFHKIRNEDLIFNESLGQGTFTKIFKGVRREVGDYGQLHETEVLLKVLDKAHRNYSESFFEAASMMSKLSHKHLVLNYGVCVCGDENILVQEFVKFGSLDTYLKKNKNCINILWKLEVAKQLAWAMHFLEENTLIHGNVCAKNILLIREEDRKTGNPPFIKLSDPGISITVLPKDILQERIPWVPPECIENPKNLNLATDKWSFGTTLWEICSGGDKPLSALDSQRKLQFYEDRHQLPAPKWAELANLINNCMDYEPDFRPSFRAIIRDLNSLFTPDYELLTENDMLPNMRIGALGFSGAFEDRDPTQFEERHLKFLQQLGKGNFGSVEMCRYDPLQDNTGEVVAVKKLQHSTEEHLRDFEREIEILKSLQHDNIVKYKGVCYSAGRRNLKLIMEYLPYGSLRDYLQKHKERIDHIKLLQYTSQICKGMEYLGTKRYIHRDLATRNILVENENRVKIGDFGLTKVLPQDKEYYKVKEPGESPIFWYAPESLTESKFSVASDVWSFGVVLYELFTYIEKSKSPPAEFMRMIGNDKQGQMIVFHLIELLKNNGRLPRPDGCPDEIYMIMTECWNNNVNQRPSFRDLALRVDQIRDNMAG
- assaySummary: phosphorylation enrichment, bacterial display (enrichment ratio); higher = better substrate or ligand; peptides without Tyr show the background
Label Satisfied for high-side phosphorylation enrichment (at or above 0.8) and Not satisfied for low-side phosphorylation enrichment (below it).

Entry RGRSTYYWPRP [GAGE12J_Y9] : is its phosphorylation enrichment no less than 0.8?
Not satisfied

Does the reported phosphorylation enrichment for CWAVKYLQMVG [AVPR2_Y117_R113W] fall at or above the 0.8 mark?
Satisfied

Is phosphorylation enrichment at least 0.8? Consider PPVVNYEEDAR [FER_Y402]
Satisfied

In plain terms: is recorded phosphorylation enrichment at least 0.8 for AYRHGYFDEEM [PLEC_Y2971_R2969H] ?
Satisfied

API: above_or_equal(metric=phosphorylation enrichment, cutoff=0.8) for item EGNEQYEGYCV [GRIA3_Y451_R450Q]
Satisfied

Quick check: does TGDFGYRAPGF [TNS2_Y668_YF] have phosphorylation enrichment greater than or equal to 0.8?
Not satisfied

Does the reported phosphorylation enrichment for VNFQPYRKHKF [TEX37_Y28_D24N_YF] fall at or above the 0.8 mark?
Not satisfied

Decide: phosphorylation enrichment of KFSNQYKATIG [RAB7A_Y37] >= 0.8?
Not satisfied

Item CTTIHYNYMFN [TP53_Y234_C238F] with phosphorylation enrichment of 0.8 or above?
Satisfied

For this sequence, is measured phosphorylation enrichment 0.8 or higher? HEVHIYENSGA [ARPC1B_Y35_K37N]
Satisfied

Given the entry ISTAGYSIPEL [EDAR_Y406] , answer whether its phosphorylation enrichment meets or surpasses 0.8.
Not satisfied

---

- assaySystem: c-Src SH2
- assaySummary: SH2 binding enrichment of the phosphorylated peptide, bacterial display (enrichment ratio); higher = better substrate or ligand; peptides without Tyr show the background
Assign 1 (yes) to entries whose SH2 binding enrichment meets or exceeds 0.5; assign 0 (no) to the rest.

Here's what some known entries look like.
> print(dat)
                       entrysequence  qualitativelabel
1            GGDVIYKGFED [NFU1_Y194]            0 (no)
2     IDFARYWHGND [MMP11_Y162_D166N]           1 (yes)
3  GEFFRYLAEVA [YWHAG_Y133_D129E_YF]            0 (no)

Reported SH2 binding enrichment reaches at least 0.5 for AQESNYRLLRQ [SLC20A2_Y377_R382Q] ?
0 (no)

Kindly determine if SH2 binding enrichment recorded for PSPMPYAFCQM [FOXL2_Y215_S217F] is above or exactly 0.5.
1 (yes)

SH2 binding enrichment >= 0.5 for KFDLMYAKLAF [TUBA1A_Y399_R402L] ?
1 (yes)

Confirm if SH2 binding enrichment reported for the sequence YIPFRYPKEFQ [IDS_Y234_H229Y] is 0.5 or above.
1 (yes)

State whether the measured SH2 binding enrichment reaches 0.5, counting equality as reaching it, for MLNTNYHLPPS [MT-ATP8_Y33]
1 (yes)

Evaluate NTFEKYWPFFQ [GATM_Y103_YF] : SH2 binding enrichment at minimum 0.5?
1 (yes)

---

- assaySystem: c-Src SH2
- assaySummary: SH2 binding enrichment of the phosphorylated peptide, bacterial display (enrichment ratio); higher = better substrate or ligand; peptides without Tyr show the background
valueType: SH2 binding enrichment

SH2 binding enrichment of KHCEDYVCSFN [DSC1_Y846_YF] on c-Src SH2?
0.809

Kindly state the measured SH2 binding enrichment obtained for EVKEAYMGNVL [ACAT1_Y90] with c-Src SH2.
0.542

I'm curious: which SH2 binding enrichment was measured for SYPHEYGSQEG [RBM10_Y48_R46H] tested on c-Src SH2?;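 also: peptide library displayed on the E. coli surface as eCPX fusions, selected cells deep-sequenced, score is each peptide's frequency after selection divided by its frequency in the input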
0.441

Notebook entry, c-Src SH2 assay: SH2 binding enrichment of DDHFTYSRYPW [LY75_Y888] = ?
0.432

Missing value: SH2 binding enrichment, c-Src SH2, entry FSPPYYHRNCM [HGD_Y334_R330S] . Fill in?
0.606

State its SH2 binding enrichment on c-Src SH2: CASQLCPRHKH [DCTN4_Y263_Y263C]
1.43

Query SH2 binding enrichment on c-Src SH2 for `TEGNEYVFRVA`
0.493
